// provenance: patent US20150322128A1

target: human glucagon receptor (human, UniProt P47871 26-477); assay: cell-based or functional assay
Sequence (P47871 26-477): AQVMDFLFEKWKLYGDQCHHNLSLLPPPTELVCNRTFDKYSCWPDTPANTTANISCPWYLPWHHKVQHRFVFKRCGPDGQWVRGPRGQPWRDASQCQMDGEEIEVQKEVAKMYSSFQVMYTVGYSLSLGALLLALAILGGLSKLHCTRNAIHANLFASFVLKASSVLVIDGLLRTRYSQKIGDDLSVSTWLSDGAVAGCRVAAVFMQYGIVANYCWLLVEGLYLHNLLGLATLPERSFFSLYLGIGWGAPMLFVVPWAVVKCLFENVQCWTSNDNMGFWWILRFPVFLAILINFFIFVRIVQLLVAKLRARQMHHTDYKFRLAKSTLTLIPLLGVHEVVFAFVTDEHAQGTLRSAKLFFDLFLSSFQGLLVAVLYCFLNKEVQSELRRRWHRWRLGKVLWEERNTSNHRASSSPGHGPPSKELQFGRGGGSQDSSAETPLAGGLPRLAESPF
Square brackets hold non-standard residues; d marks the D form. Ends that are not written are not given here.
Threshold 0.02 nM. EC50 hGlucagon-R below it: true (1). EC50 hGlucagon-R at it or above: false (0).

As a guide, the following entries are already answered.
{"binder": "HXQGTFTSDLSKQKDEEAARLFIEWLXAGGPSSGAPPPS (D-Ser at 2; Lys 14 side chain K(γE-x53) = (S)-4-Carboxy-4-hexadecanoylamino-butyryl-; Aib at 27; C-terminal amide) [SEQ ID NO: 14]", "class-label": "false (0)"}
{"binder": "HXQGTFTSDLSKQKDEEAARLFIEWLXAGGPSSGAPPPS (D-Ser at 2; Lys 14 side chain K(γE-x70) = (S)-4-Carboxy-4-octadecanoylamino-butyryl-; Aib at 27; C-terminal amide) [SEQ ID NO: 13]", "class-label": "true (1)"}
{"binder": "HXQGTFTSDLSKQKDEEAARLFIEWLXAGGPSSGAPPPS (D-Ser at 2; Lys 14 side chain K(γE-γE-x53) = (S)-4-Carboxy-4-((S)-4-carboxy-4-hexadecanoylamino-butyrylamino)-butyryl-; Aib at 27; C-terminal amide) [SEQ ID NO: 9]", "class-label": "true (1)"}
{"binder": "H[dS]QGTFTSDLSKQLDEEAARLFIEWLKAGGPSSGAPPPS-NH2 [SEQ ID NO: 34]", "class-label": "false (0)"}

Challenge: Confirm or reject: EC50 hGlucagon-R of HXQGTFTSDLSKQKDEEAARLFIEWLKAGGPSSGAPPPS (D-Ser at 2; Lys 14 side chain K(γE-γE-x53) = (S)-4-Carboxy-4-((S)-4-carboxy-4-hexadecanoylamino-butyrylamino)-butyryl-; C-terminal amide) [SEQ ID NO: 32] lies strictly below 0.02 nM
Response given: true (1)
